Value source: patent US5545517A

# system.tested: carbonic anhydrase from bovine erythrocytes (Bos taurus)
# Sequence (P00921 2-260 limits assumed): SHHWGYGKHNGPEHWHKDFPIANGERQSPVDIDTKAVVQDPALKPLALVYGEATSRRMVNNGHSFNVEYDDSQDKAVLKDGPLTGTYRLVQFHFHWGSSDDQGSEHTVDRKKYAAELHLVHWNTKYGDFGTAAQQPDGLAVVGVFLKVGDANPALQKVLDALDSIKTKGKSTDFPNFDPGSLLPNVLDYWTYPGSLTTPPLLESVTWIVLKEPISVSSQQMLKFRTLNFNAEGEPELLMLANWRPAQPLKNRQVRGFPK
# method: binding of dansylamide to the zinc-containing carbonic anhydrase active site (fluorescence titration)
# settings: binding site when zinc is present there
value.kind: pKd
pKd here: minus log base 10 of the concentration, concentration in moles per litre.

Incoming: Dear colleague, please send me the reported pKd for CN(C)c1cccc2c(S(N)(=O)=O)cccc12 [dansylamide] when you can.
Outgoing: 6.62
